measured.on: c-kit WT (Homo sapiens (Human), UniProt P10721)
Sequence (P10721 26-976): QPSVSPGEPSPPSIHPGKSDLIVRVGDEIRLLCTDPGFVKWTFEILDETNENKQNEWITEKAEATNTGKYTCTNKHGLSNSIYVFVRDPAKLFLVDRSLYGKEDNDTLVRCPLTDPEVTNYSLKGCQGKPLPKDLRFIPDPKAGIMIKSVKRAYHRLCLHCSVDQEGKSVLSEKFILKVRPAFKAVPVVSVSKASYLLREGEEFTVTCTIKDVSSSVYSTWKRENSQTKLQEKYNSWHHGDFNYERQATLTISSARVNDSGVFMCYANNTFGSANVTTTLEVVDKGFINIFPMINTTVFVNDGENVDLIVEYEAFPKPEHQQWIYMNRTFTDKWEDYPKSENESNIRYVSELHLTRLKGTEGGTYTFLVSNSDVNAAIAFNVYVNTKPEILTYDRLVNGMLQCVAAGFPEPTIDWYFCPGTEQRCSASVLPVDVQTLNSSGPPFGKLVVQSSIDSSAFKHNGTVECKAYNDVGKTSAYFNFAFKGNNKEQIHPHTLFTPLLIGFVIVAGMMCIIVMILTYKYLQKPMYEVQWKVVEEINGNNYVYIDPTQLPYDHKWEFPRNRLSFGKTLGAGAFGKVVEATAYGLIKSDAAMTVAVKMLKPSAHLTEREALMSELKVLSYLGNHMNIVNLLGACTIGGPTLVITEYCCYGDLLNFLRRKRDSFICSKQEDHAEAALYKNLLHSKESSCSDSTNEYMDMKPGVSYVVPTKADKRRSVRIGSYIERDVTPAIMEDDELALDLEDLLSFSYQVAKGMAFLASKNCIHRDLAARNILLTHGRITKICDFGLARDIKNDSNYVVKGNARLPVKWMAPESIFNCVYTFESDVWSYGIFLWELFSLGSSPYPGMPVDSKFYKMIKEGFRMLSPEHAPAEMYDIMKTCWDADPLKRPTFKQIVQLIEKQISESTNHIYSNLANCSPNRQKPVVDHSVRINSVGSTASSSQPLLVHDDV
assay.notes: Proliferation assay (CellTiter-Blue) on BaF3 Kit WT cell line
recorded.conditions: BaF3 Kit WT cell line (murine Ba/F3 expressing Human Kit WT, with murine SCF), 48 hours
measurement.type: IC50

Answered examples (10):
Cc1cc2c(cc1Nc1nc(-c3cccnc3)cs1)nc(-c1cccc(C(F)F)c1)n2C
≤ 1000 nM
Cc1cc2nc(-c3cc(CN4CCOCC4)cc(C(F)(F)F)c3)[nH]c2cc1Nc1nc(-c2cccnc2)cs1
≤ 1000 nM
Cc1cc2nc(-c3cc(CN4CCCCC4)cc(C(F)(F)F)c3)[nH]c2cc1Nc1nc(-c2cccnc2)cs1
≤ 1000 nM
Cc1cccc(-c2nc3cc(C)c(Nc4nc(-c5cccnc5)cs4)cc3n2C)c1
1000 to 10000 nM
Cc1cc2c(cc1Nc1nc(-c3ccncc3)cs1)nc(-c1cccc(C(F)(F)F)c1)n2C(C)C
≤ 1000 nM
Cc1cc2nc(-c3cccc(OC(F)(F)F)c3)[nH]c2cc1Nc1nc(-c2ccc(C#N)cc2)cs1
≤ 1000 nM
Cc1cc2nc(-c3cccc(C(F)(F)F)c3)[nH]c2cc1Nc1nc(-c2ccncc2)cs1
≤ 1000 nM
Cc1cc2c(cc1Nc1nc(-c3ccncc3)cs1)nc(-c1cccc(C(C)(C)C)c1)n2C
≤ 1000 nM
Cc1cc2nc(-c3cccc(C(F)(F)F)c3)[nH]c2cc1Nc1ncc(-c2cccnc2)o1
1000 to 10000 nM
Cc1cc2c(cc1Nc1nc(-c3ccncc3)cs1)nc(-c1cccc(S(C)(=O)=O)c1)n2C
≤ 1000 nM

c-kit WT (Homo sapiens (Human), UniProt P10721) / IC50 / `Cc1ccc(-c2nc3cc(Nc4nc(-c5ccncc5)cs4)c(C)cc3[nH]2)s1` : value? ≤ 1000 nM

c-kit WT (Homo sapiens (Human), UniProt P10721) / IC50 / `Cc1cc2nc(Cc3ccccc3)[nH]c2cc1Nc1nc(-c2cccnc2)cs1` : value? 1000 to 10000 nM

c-kit WT (Homo sapiens (Human), UniProt P10721) / IC50 / `Cc1cc2nc(-c3cccc(N(C)C)c3)[nH]c2cc1Nc1nc(-c2cccnc2)cs1` : value? ≤ 1000 nM

c-kit WT (Homo sapiens (Human), UniProt P10721) / IC50 / `Cc1cc2nc(-c3cncn3C)[nH]c2cc1Nc1nc(-c2cccnc2)cs1` : value? 1000 to 10000 nM

c-kit WT (Homo sapiens (Human), UniProt P10721) / IC50 / `Cc1cccc(-c2nc3cc(Nc4nc(-c5ccnc(Cl)c5)cs4)c(C)cc3[nH]2)c1` : value? ≤ 1000 nM

c-kit WT (Homo sapiens (Human), UniProt P10721) / IC50 / `Cc1cc2c(cc1Nc1nc(-c3ccncc3)cs1)nc(-c1cc(F)cc(C(F)(F)F)c1)n2C` : value? ≤ 1000 nM

c-kit WT (Homo sapiens (Human), UniProt P10721) / IC50 / `Cc1cc2nc(-c3cc(CN4CCN(C)CC4)cc(-c4cnco4)c3)[nH]c2cc1Nc1nccc(-c2cccnc2)n1` : value? 1000 to 10000 nM

c-kit WT (Homo sapiens (Human), UniProt P10721) / IC50 / `Cc1cc2nc(Cc3cccc(F)c3)[nH]c2cc1Nc1ncc(-c2ccncc2)o1` : value? 1000 to 10000 nM
